Below is a list of entries, each paired with its recorded apparent KD of K4 kissing-loop reporter value.
Tested on: K4 kissing-loop RNA reporter;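 note: bound reporter read as fluorescence of individual clusters on recovered sequencing chips by microscopy, with normalized cluster intensities fitted with a binding model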
Test: apparent KD of K4 kissing-loop reporter; higher = weaker reporter binding
Settings: Eterna round: R107; input ligand: theophylline 20 uM

{"Primary Sequence": "CCGCCAUCGUCAGAUACCAGGCUGAUGGCGGUAACCGCCAAGCGAGUGAUGUUCGCAUCAGUCCCUUGGCAGCUGACGAAGACUG [#16 K4 Theophylline B Same State]", "apparent KD of K4 kissing-loop reporter": "283 nM"}
{"Primary Sequence": "UGGACCUGACUCGAUAAGAGUCAAUGGGAUACCAGCCACGAAAGUGGCCCUUGGCAGCUCUACCAGUGAUGUUGGUCAAGGUCCU [#SwitchBubble 8 #StaticStem]", "apparent KD of K4 kissing-loop reporter": "716 nM"}
{"Primary Sequence": "GUACCUUGGAAACAAGGACAGCUAACCGAAGGAGCGCGUGAAAACGCAGGUAGGUCGCGGUAGCGGAGUGAUGUUCCGCGAGAGC [Same State Arginine A GF 19]", "apparent KD of K4 kissing-loop reporter": "103 nM"}
{"Primary Sequence": "UUUCCAGAUAAGUGGGAACACUCCAUAACAGAGGAUAUCAGAGCGCUGAGAAGGCUGUUUUACAGUGAUGUUGUAAGUGUGGAGU [FMN A SS t2]", "apparent KD of K4 kissing-loop reporter": "304 nM"}
{"Primary Sequence": "AGCUAGUACGCAGGAUAUCGAACAUCAUUUAGUGAGAUCGAGUGAUGUUCGAUCACGUCUUCAGUUCGAGAAGGGCGUACUAGCA [#01 K4 FMN B Same State]", "apparent KD of K4 kissing-loop reporter": "1220 nM"}
{"Primary Sequence": "AGAUCUGUAACAGAUACCAGAGGACGAUGAUCGGAUAGUGAUGUUAUCUGUCAGUCGUCGCUCCCUUGGCAGCUGUUACAGAUCA [Omei KL Theo B SS B v1]", "apparent KD of K4 kissing-loop reporter": "135 nM"}

###

Below is a list of entries, each paired with its recorded apparent KD of MS2 coat protein value.
Tested on: MS2 coat protein
Test: apparent KD of MS2 coat protein; designed switch direction (-1 OFF switch, 1 ON switch): -1; higher = weaker reporter binding
Conditions: input ligand: FMN 200 uM
Measurement Label: apparent KD of MS2 coat protein (nM)

{"Primary Sequence": "GACUGGACAGGAUAUGUUCUUGAGCACUUGAGGAUCACCCAAGUCAUCAAGAACUCAGGCACAGAAGGGUUUAUGA [salish99_ex5_r4_008] (Eterna round: R97, puzzle: Exclusion 5)", "Measurement Label": "apparent KD of MS2 coat protein", "Test Value": 29.6}
{"Primary Sequence": "UUAUUGGUUGUGAGGAUAUCGGAUAGAUAGAUAUUCGAGAAGGCACAUGAGGAUCACCCAUGUGUGAUUAGAAA [JR_BMEx4_Sub048] (Eterna round: R97, puzzle: Brourd's mod of Exclusion 4)", "Measurement Label": "apparent KD of MS2 coat protein", "Test Value": 193}
{"Primary Sequence": "UUGUUCCAUGUAGGAUAUGCAUAUUCUCAUUAUGCAGAAGGACAUGAGGAUCACCCAUGUAUGUUAUUAUUAUAUGUUACAUGU [Design 2] (Eterna round: R96, puzzle: Exclusion NG 1)", "Measurement Label": "apparent KD of MS2 coat protein", "Test Value": 613}
{"Primary Sequence": "UAAAUGUCAGGAUAUUGUUAAUUUAGUUGUUUGUAUUAGUUCGAGAAGGGACAUGAGGAUCACCCAUGUUAUUU [Ex4 #55] (Eterna round: R97, puzzle: Exclusion 4)", "Measurement Label": "apparent KD of MS2 coat protein", "Test Value": 33.6}
{"Primary Sequence": "AGUGUGUGGCAGGAUAUUCUAAUCGUGAGUAGGGAAGAAGGGUCUACAUGAGGAUCACCCAUGUAAGCGGUUGA [Ex6 #43] (Eterna round: R97, puzzle: Exclusion 6)", "Measurement Label": "apparent KD of MS2 coat protein", "Test Value": 257}

###

Below is a list of entries, each paired with its recorded apparent KD of MS2 coat protein value.
Tested on: MS2 coat protein
Experiment: apparent KD of MS2 coat protein; designed switch direction (-1 OFF switch, 1 ON switch): 1; higher = weaker reporter binding
Conditions: input ligand: microRNA oligo, concentration not stated

{"Primary Sequence": "AGACAUGAGGAUCACCCAUGUAUACACUAUAUCAGUGUAACAUAGGAUAUCCACCGCCAUGCUGUGGAGAAGGAUGAAACGGGC [Raerlaan] (Eterna round: R96, puzzle: Same State NG 3)", "apparent KD of MS2 coat protein": "65.9 nM"}
{"Primary Sequence": "UGUUGUAUUACAGGAUAUCUAGUAUUUUAAUUUAGAGAAGGGUAUUCACAUGAGGAUCACCCAUGUAUAUACGAGGAAGUUGUG [JMF's solution 43] (Eterna round: R96, puzzle: Same State NG 1)", "apparent KD of MS2 coat protein": "38.6 nM"}
{"Primary Sequence": "GUGGUCAGACAUGAGGAUCACCCAUGUGGAAUAAAUAACGGACAGGAUAUUUAAUAUAGGAUAUAGAAGAAGGGUUGAUUGGUG (Eterna round: R96, puzzle: Same State NG 3)", "apparent KD of MS2 coat protein": "77.9 nM"}
{"Primary Sequence": "GCUCGGCUGAUGGCCUACAUGAGGAUCACCCAUGUGUGUGGGCAGGAUAUCUAGAUUAAGGAUGUAGAGAAGGGCCUGCCGAGC [SameState NG3 #38] (Eterna round: R96, puzzle: Same State NG 3)", "apparent KD of MS2 coat protein": "340 nM"}
{"Primary Sequence": "GCUAGUAUUAUUGUCAACAUGAGGAUCACCCAUGUAUGUUGGCAGGAUAUCGUUUGCAAAGCAAACGAGAAGGGCUAAACUAGC [Mat - Same State NG 3 - JL Mod - D10] (Eterna round: R96, puzzle: Same State NG 3)", "apparent KD of MS2 coat protein": "105 nM"}

###

System: MS2 coat protein
Test: apparent KD of MS2 coat protein; designed switch direction (-1 OFF switch, 1 ON switch): -1; higher = weaker reporter binding
Details: input ligand: none
Below is a list of entries, each paired with its recorded apparent KD of MS2 coat protein value.

{"Primary Sequence": "CAGGGCGCAGGAUAUAUCACAAUGCACAUGAGGAUCACCCAUGUCAUCCUCGCGCUUGAGAUAGAAGGGUGAAACC [Eternabot (L1) Solution 65] (Eterna round: R97, puzzle: Exclusion 5)", "Readout Unit": "nM", "apparent KD of MS2 coat protein": 23.7}
{"Primary Sequence": "UUUGUCUGUGUGAGGAUAUACUUGUUUGGGUUUUUGUAGAAGGCACAUGAGGAUCACCCAUGUAUUUUGUCGUG [JR_BME4_Sub018] (Eterna round: R96, puzzle: Brourd's mod of Exclusion 4)", "Readout Unit": "nM", "apparent KD of MS2 coat protein": 41.9}
{"Primary Sequence": "CUUAGUUGGUAAGGAUAUCCUACAUUAUUCUGACCCGUGCAAGCUACAUGAGGAUCACCCAUGUGGGAGAAGGUGCGUUAAUGU [Design 6] (Eterna round: R96, puzzle: Exclusion NG 2)", "Readout Unit": "nM", "apparent KD of MS2 coat protein": 20.1}
{"Primary Sequence": "UCGAUGUGAGGAUAUAUUUUUUUUUUUCCUUAUGUUUUAUAACUUGAGGAUCACCCAAGUAGAAGGCGCUACGU [JR_Ex2_Sub063] (Eterna round: R97, puzzle: Exclusion 2)", "Readout Unit": "nM", "apparent KD of MS2 coat protein": 136}
{"Primary Sequence": "GUGUUUCGUGUAGGAUAUGUUUGUGGGUCGCGGGCAGAAGGACAUGAGGAUCACCCAUGUUGCGGGUUCGGUUUGUGCGGGCGC [-22, -20 kcal and 14% A] (Eterna round: R96, puzzle: Exclusion NG 1)", "Readout Unit": "nM", "apparent KD of MS2 coat protein": 22.3}
{"Primary Sequence": "CGGGACGUCCUGAUAAUAAGACAUGAGGAUCACCCAUGUCGGCAGGAUAUCAGUCCUUACGGUUAUGAGAAGGGUCGGCAACCA [Quatis] (Eterna round: R96, puzzle: Exclusion NG 3)", "Readout Unit": "nM", "apparent KD of MS2 coat protein": 11.6}
{"Primary Sequence": "GUCCUGUGGCAGGAUAUGAAAACGUAGCAACGGUCAGAAGGGCCAACAUGAGGAUCACCCAUGUACCCGUAUGG [Eternabot (L1) Solution 62] (Eterna round: R97, puzzle: Exclusion 6)", "Readout Unit": "nM", "apparent KD of MS2 coat protein": 19.9}
{"Primary Sequence": "GCUUGUAGAGGAUAUACAAGGGCCCACGCGGCGAGAGCCGCACAUGAGGAUCACCCAUGUAGAAGGCUACUAUA [JL-ex2-4.23 ViennaUCT mod] (Eterna round: R97, puzzle: Exclusion 2)", "Readout Unit": "nM", "apparent KD of MS2 coat protein": 363}
{"Primary Sequence": "GAGAUGCGGAUAGGAUAUGGAAGAAAAGAAGGAUUAGAAGGGUUGGUUAGAAUACAUGAGGAUCACCCAUGUGAAUCAUGAGAA [AK ExNG1-2.3] (Eterna round: R96, puzzle: Exclusion NG 1)", "Readout Unit": "nM", "apparent KD of MS2 coat protein": 128}
{"Primary Sequence": "UAUUUAGCAAGUAGAUCCUACAUGAGGAUCACCCAUGUGCUCUGAAAUAACGCAGAAUUACUGCGAGCUCGUCUUAU [Winner reversed engineered 28] (Eterna round: R97, puzzle: Sensor, turn-off variant 1)", "Readout Unit": "nM", "apparent KD of MS2 coat protein": 1560}
{"Primary Sequence": "AUAAAGUGAGGAUAUCCAAUAUAUGACAUGAGGAUCACCCAUGUUUCCACUCGUACCUCCGGAGAAGGCACAAAAU [Ex5 #61] (Eterna round: R97, puzzle: Exclusion 5)", "Readout Unit": "nM", "apparent KD of MS2 coat protein": 30.5}
{"Primary Sequence": "CAUUCCUAGCGAGGAUAUCAGUAAAAGGGAAGCUGAGAAGGCGCAAACAUGAGGAUCACCCAUGUCACACGCGGGUAGUUUUCC [Uslazaxe] (Eterna round: R96, puzzle: Exclusion NG 1)", "Readout Unit": "nM", "apparent KD of MS2 coat protein": 14.3}
{"Primary Sequence": "UUCUUGGCAGGAUAUGCUCUUUUAGACAUGAGGAUCACCCAUGUGUUUAUUCUUUUUUUUGCAGAAGGGCCUUAAU [JR_E5_Sub044] (Eterna round: R96, puzzle: Exclusion 5)", "Readout Unit": "nM", "apparent KD of MS2 coat protein": 98.1}
{"Primary Sequence": "ACAAAGCUUUUUGCUCGUCACAUGAGGAUCACCCAUGUGAUAUAAUGAAAAUUAUAUGACAUCCCACUAGGACAUGU [I did it?] (Eterna round: R97, puzzle: Sensor, turn-off variant 1)", "Readout Unit": "nM", "apparent KD of MS2 coat protein": 20.9}
{"Primary Sequence": "CUGAAUCGAGGAUAUUGUACUGCUGACAUGAGGAUCACCCAUGUAUGUUAACUCAGCCGUCGAGAAGGCGAACAUA [BotMod 33 - Jieux - Exclusion 5] (Eterna round: R97, puzzle: Exclusion 5)", "Readout Unit": "nM", "apparent KD of MS2 coat protein": 19}
{"Primary Sequence": "GUUUUAUAUGAAGGAUAUACUUAACAUGAGGAUCACCCAUGUGGUGUUGUGAGUGAGUGAGUUUAGUAGAAGGUCAAUUAUUUU [JMF's solution 33] (Eterna round: R96, puzzle: Exclusion NG 2)", "Readout Unit": "nM", "apparent KD of MS2 coat protein": 184}
{"Primary Sequence": "AGGUGUAGAGGAUAUACAGUGUAUUACAUGAGGAUCACCCAUGUCCUUCAAUGGGUGUCAGUAGAAGGCUACACCA [Omei Ex5 C2] (Eterna round: R97, puzzle: Exclusion 5)", "Readout Unit": "nM", "apparent KD of MS2 coat protein": 1660}
{"Primary Sequence": "UUCAGGAGUCGAGGAUAUUUGCAGACGACAUGAGGAUCACCCAUGUGGUUAGCAUAGUCUUCAGCAGAGAAGGCGACCAACGAG [Eternabot solution 20] (Eterna round: R96, puzzle: Exclusion NG 2)", "Readout Unit": "nM", "apparent KD of MS2 coat protein": 40.3}
